- assay-details: yeast display, Sf9 membrane polyspecificity reagent, FACS + sequencing; frameworks hold sequencing errors
quantity-measured: polyreactivity (PSR sort gate)

QVQLVESGGGLVQAGGSLRLSCAASGRIFYWYAMGWYRKAPGKERELVAAIIWSGGSSYYADSVKGRFTISRDNAKNTVYLQMNSLKPEDTAVYYSAADRILEMGYWGQGTQVTVSS | low polyreactivity
QVQLVESGGGLVQAGGSLRIRCAASGSIFWYNAMGWYRQAPGKERELVAAISYRGGSTYYADSVKGRFTISRDNAKNTVYLQMNSLKPEDTAVYYCAAEYGDVYVWTYDYWGQGTQVTVSS | high polyreactivity
QVQLVESGGGLVQAGGSLRLSSAASGNIFKSYTMGWYRQAPGKERELVAAITSGGRTNYGDSVKGRFTISRDNAKNTVYLQMNSLKPEDTAVYYCNAYKVFWVSIRYKFDYWGQGTQVTVSS | high polyreactivity
QVQLVESGGGLVQAGGSLRLSCAASGLTFRYYAMGWYRQAPGKERELVAAISSRGASTYYADSVKGRFTISRDNAKNTVYLQMNSLKPEDTAVYYCAVRTYVYHWSFSSLPYDYWGQGTQVTVSS | high polyreactivity

Let us move to another entry and its polyreactivity (PSR sort gate).
Q: So what does the record say about polyreactivity (PSR sort gate) for QVQLVESGGGLVQAGGSLRLSCASSGSILYVYAMGWYRQAPGKERELVAAISTSGVSTYYADSVKGRFTISRDNAKNTVYLQMNSLKPEDTAVYYCAATVSRGFYSWWYDYWGQGTQVTVSS ?
A: low polyreactivity

* * *

- assay-details: yeast display, Sf9 membrane polyspecificity reagent, FACS + sequencing; frameworks hold sequencing errors
quantity-measured: polyreactivity (PSR sort gate)

QVQLQESGGGLVQAGGSLRLSCAASGSISAVGAMGWYRQAPGKEREFAASVNWGTNTNYADSVKGRFTISRDNAKNTLNLQMNSLKPEDTAVYYCAVQPDWETRHDYWGHGTQVTVSS | low polyreactivity
QVQLVESVGGLVQAGGSLRISCAASGFIFKSYSMGWYRQAPGKERELVAAISWIGGRTYYADSVKGRFTISRDNAKYTVYLQMNSLKPEDTAVYYCAKVVKYQSGGGLEYWGQGTQVTVSS | high polyreactivity
QVQLVESGGGLVQAGGTLRLSCAASGSIFNPYAMGWYRQAPGKDRELVATITRPGRTNYADSVKGRFTISRDHAENTVYLQMNSLKPEDTAVYYCAAYTSYGVYYWGQGTQVTVSS | high polyreactivity
QVQLVESGGGLVQAGGSLRLSCAASGFIFESNAMGWYIQAPGKERELVATITNGDRTYYADSVNGRFTISRDNAKNTVYLQMNSLKPEDTAVYYCNADFRAREVFLFDSWGQGTQVTVSS | low polyreactivity

// next entry
Q: Consider the sequence QVQLVESGGGLVQAGGSLRLSCAASGHIFFVNAMGWYRQAPGKERELVAAINSVGSTYYADSVKGRFTISRDNAKNTVYLQMNSLKPEDTAVYYCAADSVYSQRHSWAYEDDYWGQGTQVTVSS and give its measured polyreactivity (PSR sort gate).
A: low polyreactivity

* * *

- assay-details: yeast display, Sf9 membrane polyspecificity reagent, FACS + sequencing; frameworks hold sequencing errors
quantity-measured: polyreactivity (PSR sort gate)

QVQLVESGGGLFQAGGSLRLSCAASGFTFVYYAMGWYRQAPGKERELVASISGGGRTYYADSVKGRFTISRENAKNTGYLQMNSLIPEDTAVYYCAARYWDYRNRWLYVYWGQGTQLTVSS | high polyreactivity
QVQLQERGGGLVQAGGSLRLSCAASGIIYADGFMGLYRQAPGKELEFVANITGGGTSNYADSVKGGFTISRDNAKNTVYLQMNSLKPEDTAVYFCAVYFAWTIGFTYWGQGTQVTVSS | high polyreactivity

* * *

- assay-details: yeast display, Sf9 membrane polyspecificity reagent, FACS + sequencing; frameworks hold sequencing errors
quantity-measured: polyreactivity (PSR sort gate)

In the examples that follow, each entry is paired with its recorded polyreactivity (PSR sort gate).
QVQLVESGGGLVQAGGSLRLSCAASGSTFRDYDMGWYRQAPGKERELVAAISRSGGRTYYADSVKGRFTISRDNAKNTVYLQMNSLKPEDTAVYYCAARRYTRRANPAYPYEYWGQGTQVTVSS | high polyreactivity
QVQLVESGGGLVQAGVSLRLSCAASGITFPYYTMGCYRQAPGKERELVAAITSGGSTNYADSVKGRFTISRDNAKNTVYLQMNSLKPEDTAVYYCDGVLWLFDYWGQGTQVTVSS | high polyreactivity
QVQLQERGGGLVQAGGSLCLSCAASGTIFFDGDMGWYRQAPGKEREFVAAINPGGSAYYADSVKGRLPLAAITHTVYLQMNSLKPEDTAVYYCAAKLFDVYGYYYWGQGTHVTVSS | low polyreactivity
QVQLVESGGGLVQAGGSLRLSCAASGRIFRVNTMGWSRQAPGKERELVAAIRSSGTRPYYADSVKGRFTISRDHAKNTVYLQMNSLIPEDTAVYYCAAEHYWWYVFPSLWGEDDYWGQGTQVTVSS | high polyreactivity
QVQLVESGGGLVQAGGSLRLSCAASGSTIYPNAMGWYRQAPGKERELVARISRTGGSTYADSVKGRFTISRDNAKNTVYLQMNSLIPEDSAVYYCARSYASFSWLRTKEPYEYWGQGTQVTVSS | low polyreactivity
QVQLVESRGGLVQAGGSLRLSCAASGSIFRSYAMGWYRQAPGKERELVAAIRGSDGNTYYADSVKGRFTISRDNPKNTVYLQMNSLKPEDTAVYYCAADGCLVDDSATRLYYWGQGTQVTVSS | high polyreactivity
QVQLVESGGGLVQAGGSLRLSCASSGRTFRYNAKGWYRQAPGKERELVAAISWSGGGTYYSDSVKGRFTISRDNAKNTVYLQMNSLKPEDTAVYYCAAEEQIPLTNNSKYYYWGQGTQVTVSS | low polyreactivity
QVQLVESGGGLVQAGGSLRLSCAASGYTFASNAMGWYRPAPGKERELVAAITRGGSTNYADSVKGRFTISRDNAKNTVYLQMNSLKPEDTAVYYFAAPRYRHTRKGGYWGQGTQVTVSS | low polyreactivity

For the 3 sequences below, give their polyreactivity (PSR sort gate) values.
1. QVQLEESGGGLVQAGGSLRLSCAASGRIFLTYAMGWYRQAPGKERELVAAIRSRSGTTYYADSVKGRFTISRDNAKNTVYLQMNSLKPEDTAVYYCAAGGKSRSYYWGQGTQVTVSS
2. QVQLVESGGGLVQAGGSLRLSCAASGSTFAEYAMGWYRQAPGKERELVATITSSGGGTYYADSVKGRFTISRDNAKNTVYLQMNSLKPEDTAVYYCGQGTQVTVSS
3. QVQLVESGGGLVQAGGSLRLSCAASGITFKYYVMGWYRQAPGKERELVARITRRSGSTYYADSVKGRFTISRDNAKNTVYLQMNSLKPEDTAVYYCAASPHSRSDYGYWGQGTQVTVSS

A:
1. high polyreactivity
2. low polyreactivity
3. high polyreactivity

* * *

- assay-details: yeast display, Sf9 membrane polyspecificity reagent, FACS + sequencing; frameworks hold sequencing errors
quantity-measured: polyreactivity (PSR sort gate)

QVQLVESGGGLVQAGGSLRLSCAASGRTFYVNTMGWYRQAPGKERELVASITWSDGSTYYADSVKGRFTISRDNAKNTVYLQMNSLKPDDSAVYYCAASGRFIVNAYRSWGRRRYEYWGQGTQVTVSS | high polyreactivity
QDQLVESGGGLVQAGGSLRLSCAASGFTFVINDMGWYRQAPGKERELVADITSGGDTYYADSVKGRFTISRDNAKNTVYLQMNSLKPEDTAVYYCNTDTYFPLYDYWGQGTQVTVSS | low polyreactivity
QVQLVESGGGLVQEGGSLRLSCAASGRILSPNAMGWYRQAPGKERELVATITRSGGSTYYADSVKGRFTISRDNAKNTVYLQMNSLKPEDTAVYYCAKLHTYPWIHDYWGQGTQVTVSS | low polyreactivity
QVQLVESGGGLDQAGGSLRLSCAASGSIFSTYAMGWYRQAPGKERELVAAISRNGGSTSYADSVKGRFTISRDNAKNTVYLQMNILKPEDTAVYYCNAGVYWPGEFDYWGQGTQVTVSS | high polyreactivity
QVQLQGSGGGLVQAGGSLRLSCAASGYNFQNVPMGWNRQAPGKERELVAGIDNGTSTNYADSVNGRFTISRDNAKNTVYLQMNSLKPEDTAVYYCAAAGQADDTLGYWGQGTQVTVSS | low polyreactivity

Below are some sequences; for each one, tell me its polyreactivity (PSR sort gate).
1. QVQLVESGGGLVQAGGSLRLSCAASGSTFGSNAMGWSRQAPGKERELVAAITYSGGRTYYADSVQGRFTISRDNAKNTVYLQMNSLKPEDPAVYYCAATFGFFYYQYDYWGQGTQVTVSS
2. QVQLVESGGGLVQAGGSLRLSCAASGLIFTSNTMGWYRQAPGKERELVAAISRRGGNTYYADSVKGRFTISRDNAKNTVYLQMNSLKPEDTAVYYCAAVAYALGFASKEDYWGQGTQVTVSS
3. QFQLVESRGGLVQAGGSLRLSCAASGFIFTHYAMGWYRQAPGKERELVAAITRRGGDTHYADSVKGRFTISRDNPKNTVYLQMNSLKPEDTAVYYSNAKRYSWGYYPAFDYWGHGTQVTVSS
4. QVQLVESGGGLVQAGGSLRLSCAASGFIFGFYAMGWYRQAPGKERELVAAITSDGGTYYADSVKGRFTISRDNAKNTVYLQMNSLKPEDTAVYYCAARPPYTDSSPGERTYDYWGQGTQVTVSS

A:
1. low polyreactivity
2. high polyreactivity
3. high polyreactivity
4. low polyreactivity

Respectfully, I request polyreactivity (PSR sort gate) for each entry included below.
1. QVQLVESGGGLVQAGGSLRLSCAASGRTFRYYAMGWYRQAPGKERELVADISWSGGRTTYADSVKGRFTISRDNAKNTVYLQMNSLKPEDTAVYYCAKVLYYPSNDYWGQGSQVTVSS
2. QVQLVESGGGLVQAGGSLRLSCAASGSIFPFYALGLYSQAPGTDRELVAGISNGDSPNYADSVKGRFTIARDNAKNSVYLQLNSLKPEDTGVYYCATDLPGGRYYGPYDYWGQGTQGTVSS

A:
1: high polyreactivity; 2: low polyreactivity

Source of measurements: the nanobody polyreactivity screen of Harvey et al. (2022)
